B1: HDV Ribozyme (parent)
chain: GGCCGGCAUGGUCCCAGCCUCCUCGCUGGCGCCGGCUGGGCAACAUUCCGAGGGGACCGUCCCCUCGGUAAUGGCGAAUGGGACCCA

- Variants of: B1
- RUN DESCRIPTION: self-cleavage, relative activity (ratio to wild type); higher = more cleavage; co-transcriptional
Mark yes for reported self-cleavage of 0.2 or greater; mark no for anything smaller.

INSERT INTO results (mutation_id, label) VALUES
  ('U46G U65C', 'yes'),
  ('G35U G55C', 'yes'),
  ('G74A U79C', 'no'),
  ('G2A C84U', 'no'),
  ('C21U U69A', 'no'),
  ('G2C C24A', 'no');

stdin: Quick check: does A56U G82A have self-cleavage greater than or equal to 0.2?
stdout: yes

stdin: Ok, now C30U A51U
stdout: yes

stdin: Record: C58A G59U
stdout: yes

stdin: Repeat with G35C A45G
stdout: yes

stdin: Record: G11U C26G
stdout: yes

stdin: Entry G25C C41G please
stdout: no

stdin: And G28A C32U ?
stdout: no
